Test: organoleptic (sensory) test of sweetening potency
Conditions: value compared with a 4% sucrose aqueous solution
Excerpt: For example, a sweetening potency of N-[N-[3-(3,4-dihydroxyphenyl)-3-methylbutyl]-L-α-aspartyl]-L-phenylalanine 1-methyl ester was approximately 50,000 times (relative to sugar), and a sweetening potency of N-[N-[3-(3,4,5-trihydroxyphenyl)propyl]-L-α-aspartyl]-L-phenylalanine 1-methyl ester was approximately 25,000 times (relative to sugar). […]
QUANTITY_KIND: Sweetening potency

Example cases with answers are listed next.
COC(=O)[C@H](Cc1ccccc1)NC(=O)[C@H](CC(=O)O)NCCCc1ccc(O)cc1O: 10000
COC(=O)[C@H](Cc1ccccc1)NC(=O)[C@H](CC(=O)O)NCCCc1ccc(O)c(O)c1O: 10000
COC(=O)[C@H](Cc1ccccc1)NC(=O)[C@H](CC(=O)O)NCCCc1ccc(O)c(O)c1: 15000
COC(=O)[C@H](Cc1ccccc1)NC(=O)[C@H](CC(=O)O)NCCCc1cc(O)c(O)c(O)c1: 25000

Continue with the compound presented below.
Challenge: What does the data say about its Sweetening potency? Entry: COC(=O)[C@H](Cc1ccccc1)NC(=O)[C@H](CC(=O)O)NCCC(C)(C)c1ccc(O)c(O)c1
Response given: 50000
